- Target Under Test: RAD51 (UniProt Q06609 1-339)
- Sequence (Q06609 whole entry): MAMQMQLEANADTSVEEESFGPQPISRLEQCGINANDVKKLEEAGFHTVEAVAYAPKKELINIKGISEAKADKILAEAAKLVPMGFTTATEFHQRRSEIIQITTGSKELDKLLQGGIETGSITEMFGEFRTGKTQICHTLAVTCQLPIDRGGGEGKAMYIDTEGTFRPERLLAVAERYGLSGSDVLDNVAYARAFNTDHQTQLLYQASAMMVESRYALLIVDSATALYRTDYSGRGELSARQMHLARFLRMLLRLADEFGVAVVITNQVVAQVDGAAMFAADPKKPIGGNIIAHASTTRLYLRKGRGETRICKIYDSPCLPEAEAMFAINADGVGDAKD
- Experiment: stopped-flow fluorescence (Hill); Kd,1; ATP, Mg2+; EMSA: 20 mM Tris-HCl pH 7.5, 2 mM MgCl2, 2 mM ATP, 37 C, 20 nM DNA, glutaraldehyde fixation; stopped-flow: 25 mM Tris-HCl pH 7.5, 5 mM MgCl2, 50 mM KCl, 2 mM ATP, 0.5 mM EDTA, 10% glycerol, 37 C; BLI: 50 mM Tris-HCl pH 7.5, 2 mM ATP, 50 mM KCl, 5 mM MgCl2, 0.05% Tween 20, room temperature
- Protocol Conditions: protein: recombinant; chain copies: 10; label: Cy3 at 3' or 5'

Binder	Kd [µM]
TTTTTTTTTTTTTTTTTTTTTTTTTTTTTTTTTTTTTTTTTTT (ssDNA) [Cy3-dT43]	1.6
